Catalogue of variants with associated protein stability index
B1: SOAT1 (parent)
chain: GVLILFLTFFAFLHCWLNAFAEML

Variants of: B1
EXPERIMENT_NOTES: protein stability index of a GFP-peptide fusion (GPS, HEK-293T) (PSI 1-6); higher = more stable;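 further: lentivirally expressed fusions sorted by FACS into six bins by GFP to DsRed ratio, PSI derived from sequencing read proportions per bin multiplied by bin number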
CONDITION_DESCRIPTION: c terminus: a fixed tail appended
Number only, no unit.

>>> reported("GVLILFLTFFAFLHCWMNAFAEML [L17M]")
2.95
>>> reported("GVLILFLTFFAFLHCWLNAYAEML [F20Y]")
2.9
>>> reported("GVLILFLTFFAFLHCWLNATAEML [F20T]")
1.98
>>> reported("GVLILFLTFFAFLHCWLNAFKEML [A21K]")
2.01
>>> reported("GVLIQFLTFFAFLHCWLNAFAEML [L5Q]")
3.75

Given GVLILFLTFFAFLICWLNAFAEML [H14I] , respond with its protein stability index.
1.95
